Below, each of the compounds is paired with its reported inhibition value.
test system: metallo-β-lactamase IMP-1 (Pseudomonas aeruginosa); assay: Inhibition of IMP1 (unknown origin) expressed in Escherichia coli BL21(DE3) assessed as substrate hydrolysis at 100 uM by UV-Vis spectrophotometric analysis relative to control
Hi! Could you send only the number? It should be in %, unit omitted.

Example cases with answers are listed next.
1. O=C1OC(Cn2c(-c3ccccc3-c3ccccc3)n[nH]c2=S)c2ccccc21 (stereo unspecified) = 54
2. CC(Cn1c(-c2ccccc2)n[nH]c1=S)c1ccccc1 (stereo unspecified) = 55
3. O=C1OC(Cn2c(Cc3ccc4ccccc4c3)n[nH]c2=S)c2ccccc21 (stereo unspecified) = 30
4. O=C1OC(Cn2c(-c3ccc(-c4ccccc4)cc3)n[nH]c2=S)c2ccccc21 (stereo unspecified) = 48
5. S=c1[nH]nc(Cc2ccccc2)n1CCCc1ccccc1 = 63

--- query ---
Problem: Which inhibition reading was recorded for the compound COc1ccc(O)c(-c2n[nH]c(=S)n2CCc2ccc(OCc3ccccc3)cc2)c1 ?
Solution: 35

----------
system: metallo-β-lactamase IMP-1 (Pseudomonas aeruginosa); assay: Inhibition of IMP1 (unknown origin) expressed in Escherichia coli BL21(DE3) assessed as substrate hydrolysis at 100 uM by UV-Vis spectrophotometric analysis relative to control
This section presents compounds with their documented inhibition values.

Example results:
1. O=C(O)Cc1ccccc1Cn1c(-c2ccccc2)n[nH]c1=S = < 30%
2. S=c1[nH]nc(-c2cc3ccccc3[nH]2)n1-c1ccc(OCc2ccccc2)cc1 = < 30%
3. Oc1ccc(CCn2c(-c3cccc(-c4ccccc4)c3)n[nH]c2=S)c(O)c1 = < 30%

Problem: Look up inhibition: Cc1ccccc1-c1n[nH]c(=S)n1CCc1ccc(O)cc1
Solution: 56%

----------
target: Metallo-beta-lactamase type 2 (Bacteria) (UniProt C7C422); experiment: Inhibition of NDM1 (unknown origin) expressed in Escherichia coli BL21(DE3) assessed as substrate hydrolysis at 100 uM by UV-Vis spectrophotometric analysis relative to control
Sequence (C7C422 whole entry): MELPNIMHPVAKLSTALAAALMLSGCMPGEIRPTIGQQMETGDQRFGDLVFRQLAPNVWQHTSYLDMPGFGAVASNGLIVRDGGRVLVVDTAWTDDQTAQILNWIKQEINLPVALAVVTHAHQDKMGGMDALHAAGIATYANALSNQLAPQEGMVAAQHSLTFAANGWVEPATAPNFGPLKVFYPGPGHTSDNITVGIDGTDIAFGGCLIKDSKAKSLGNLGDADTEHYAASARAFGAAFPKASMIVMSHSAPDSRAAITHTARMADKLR
reported.metric: inhibition

Problem: Look up inhibition: O=C(O)c1ccc(-n2c(S)nnc2-c2ccccc2)cc1
Solution: < 30%

Problem: What do you get for Cn1cccc1-c1n[nH]c(=S)n1CC1OC(=O)c2ccccc21 (stereo not given) ?
Solution: 31%

Problem: Now the compound S=c1[nH]nc(Cc2ccccc2)n1CCCc1ccccc1
Solution: < 30%

Problem: Now try S=c1[nH]nc(-c2ccc3ccccc3c2)n1[C@@H]1C[C@H]1c1ccccc1 .
Solution: < 30%

Problem: Please give the result for S=c1[nH]nc(Cc2ccccc2)n1Cc1ccccc1 too.
Solution: < 30%

----------
experiment: Binding affinity to VIM-4 (unknown origin) expressed in Escherichia coli BL21(DE3) assessed as inhibition constant by measuring rate of substrate hydrolysis by UV-Vis spectrophotometric analysis
# pKi per entry
# pKi = -log10(concentration in molar units)

Problem: What value of measured pKi is listed for COc1ccc(O)c(-c2n[nH]c(=S)n2CC2OC(=O)c3ccccc32)c1 (centres undefined) ?
Solution: 6.05

Problem: Same lookup for O=C(O)c1ccccc1CCn1c(-c2cccc(-c3ccccc3)c2)n[nH]c1=S , please.
Solution: 5.68

Problem: Now try Oc1ccc(CCn2c(-c3cccc(-c4ccccc4)c3)n[nH]c2=S)c(O)c1 .
Solution: 6.09

Problem: Repeat for the following molecule: Oc1ccc(CCn2c(-c3ccc4ccccc4c3)n[nH]c2=S)cc1
Solution: 5.49

Problem: Another molecule to check: Oc1ccc(CCn2c(-c3ccccc3-c3ccccc3)n[nH]c2=S)c(O)c1
Solution: 4.22

----------
molecular target: Metallo-beta-lactamase type 2 (Bacteria); assay: Inhibition of NDM1 (unknown origin) expressed in Escherichia coli BL21(DE3) assessed as substrate hydrolysis at 100 uM by UV-Vis spectrophotometric analysis relative to control
inhibition listing for selected compounds.

1. COc1ccc(O)c(-c2n[nH]c(=S)n2CC2OC(=O)c3ccccc32)c1 (stereo unspecified) = 68%
2. O=C1OC(Cn2c(-c3cccc(-c4ccccc4)c3)n[nH]c2=S)c2ccccc21 (stereo unspecified) = < 30%
3. Sc1nnc(-c2ccccc2)n1-c1ccccc1 = < 30%
4. S=c1[nH]nc(-c2ccc3ccccc3c2)n1CCc1ccccc1 = < 30%
5. S=c1[nH]nc(-c2ccccc2)n1CCCc1ccccc1 = < 30%

Problem: Which value of inhibition has been reported for O=C(O)c1ccccc1CCn1c(-c2cccc(-c3ccccc3)c2)n[nH]c1=S in the records?
Solution: < 30%

Problem: Now the compound COc1ccc(O)c(-c2n[nH]c(=S)n2Cc2ccccc2)c1
Solution: < 30%

----------
MIC values for the molecules below.
system: Klebsiella pneumoniae; assay: Antimicrobial synergistic activity against blaVIM-1-producing multidrug-resistant Klebsiella pneumoniae 7023 clinical isolate assessed as meropenem MIC at 32 ug/ml by CLSI based broth microdilution method (reference value: 16 ug/ml); type: functional; details: dose 32 µg/ml
Provide the reading as a plain figure in mg/L.

Examples with answers:
1. Oc1cccc(CCn2c(-c3cccc(-c4ccccc4)c3)n[nH]c2=S)c1O = 16
2. Cn1cccc1-c1n[nH]c(=S)n1CC1OC(=O)c2ccccc21 (stereo not given) = 2
3. COc1ccc(O)c(-c2n[nH]c(=S)n2CCc2ccccc2)c1 = 4

Problem: Enter reported MIC observed with Klebsiella pneumoniae for S=c1[nH]nc(-c2ccccc2)n1CCCCc1ccccc1
Solution: 2

Problem: Request: Oc1ccc(CCn2c(-c3ccccc3)n[nH]c2=S)cc1
Solution: 4

Problem: What about O=C1OC(Cn2c(-c3ccccc3)n[nH]c2=S)c2ccccc21 (stereo not given) ?
Solution: 2

Problem: Queued: O=C(O)c1ccc(Cn2c(-c3ccccc3)n[nH]c2=S)cc1
Solution: 4

Problem: # repeat for Cc1ccccc1-c1n[nH]c(=S)n1CCc1ccccc1
Solution: 4

Problem: Also Oc1ccc(CCn2c(-c3cccc(-c4ccccc4)c3)n[nH]c2=S)c(O)c1 , if possible.
Solution: 2

Problem: Now this one: COc1ccc(O)c(-c2n[nH]c(=S)n2CC2OC(=O)c3ccccc32)c1 (stereo not given)
Solution: 2

Problem: Please answer likewise for COc1ccc(O)c(-c2n[nH]c(=S)n2Cc2ccccc2)c1
Solution: 2

Problem: Also check Oc1ccc(CCn2c(-c3cccc(-c4ccccc4)c3)n[nH]c2=S)cc1O
Solution: 16

Problem: Another molecule: Oc1ccc(CCn2c(-c3ccccc3)n[nH]c2=S)c(O)c1
Solution: 4

Problem: Let us now turn to Oc1ccc(CCn2c(-c3cc(-c4ccccc4)ccc3O)n[nH]c2=S)c(O)c1
Solution: 1

Problem: Can you handle COc1ccc(O)c(-c2n[nH]c(=S)n2[C@@H]2C[C@H]2c2ccccc2)c1 next?
Solution: 4

Problem: Now this one: COc1ccc(O)c(-c2n[nH]c(=S)n2CCc2ccc(O)cc2)c1
Solution: 2

Problem: Same for S=c1[nH]nc(-c2ccccc2)n1CCCc1ccccc1
Solution: 2

Problem: Lookup Sc1nnc(-c2ccccc2)n1Cc1ccccc1
Solution: 4

Problem: O=C(O)c1cccc(Cn2c(-c3ccccc3)n[nH]c2=S)c1 ?
Solution: 2

Problem: Likewise for S=c1[nH]nc(-c2ccccc2)n1CCc1ccccc1 ?
Solution: 2

----------
system: metallo-β-lactamase VIM-4 (Pseudomonas aeruginosa); assay: Inhibition of VIM-4 (unknown origin) expressed in Escherichia coli BL21(DE3) assessed as substrate hydrolysis at 100 uM by UV-Vis spectrophotometric analysis relative to control
reported.metric: inhibition

Consider the worked cases shown below.
1) O=C(NCc1ccccc1)c1ccccc1CCn1c(-c2ccccc2)n[nH]c1=S = < 30%
2) S=c1[nH]nc(-c2ccc3ccccc3c2)n1CCc1ccccc1 = < 30%
3) S=c1[nH]nc(Cc2ccccc2)n1CCc1ccccc1 = < 30%
4) S=c1[nH]nc(Cc2ccccc2)n1CCCc1ccccc1 = < 30%

Problem: Which inhibition reading was recorded for the compound CC(Cn1c(-c2ccccc2)n[nH]c1=S)c1ccccc1 (stereo unspecified) ?
Solution: < 30%

Problem: Same read-out for S=c1[nH]nc(-c2ccc3ccccc3c2)n1[C@@H]1C[C@H]1c1ccccc1 ?
Solution: 35%

----------
This listing pairs compounds with measured pKi.
biological target: Beta-lactamase VIM-1 (Bacteria, UniProt Q8GDC1); test: Binding affinity to VIM-1 (unknown origin) expressed in Escherichia coli BL21(DE3) assessed as inhibition constant by measuring rate of substrate hydrolysis by UV-Vis spectrophotometric analysis
Remember, pKi is on a log scale: it is -log10 of the molar concentration.

1. Sc1nnc(-c2ccccc2)n1Cc1ccccc1 = 6.14

Problem: Any idea what its pKi is? The compound is O=C1OC(Cn2c(-c3ccccc3)n[nH]c2=S)c2ccccc21 (stereo not drawn)
Solution: 6.12

Problem: What would you report for Oc1ccc(CCn2c(-c3cccc(-c4ccccc4)c3)n[nH]c2=S)cc1O ?
Solution: 5.89

Problem: Also need COc1ccc(O)c(-c2n[nH]c(=S)n2CCc2ccc(O)cc2)c1 , thanks.
Solution: 5.80

Problem: Here is the next compound: O=C(O)c1cccc(Cn2c(-c3ccccc3)n[nH]c2=S)c1
Solution: 5.85

Problem: Lookup Sc1nnc(-c2ccccc2)n1-c1ccccc1
Solution: 5.49

Problem: Continue with Oc1ccc(CCn2c(-c3ccccc3)n[nH]c2=S)cc1
Solution: 5.68

Problem: Now the same for S=c1[nH]nc(-c2ccc3ccccc3c2)n1CCc1ccccc1
Solution: 5.43
